- Test system: E31 (patient-derived glioblastoma stem cells of proneural subtype);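 note: cell Painting imaging in 384-well plates, CellProfiler features reduced to at least 20 principal components, Euclidean distance versus same-plate DMSO vehicle wells (0.1% v/v), median over six images per well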
- Assay Remarks: phenotypic distance (Euclidean, principal components) from DMSO controls (arbitrary units); higher = stronger morphological change
- Reported Conditions: 333.3 nM; exposure time: 72 h
Counter-ions that a name gives are not always drawn.
Binary classification by phenotypic distance, with 0.5 as an inclusive lower bound for met; all other cases are not met.

Compound: COc1c(N2CCNC(C)C2)c(F)cc2c(=O)c(C(=O)O)cn(C3CC3)c12 (stereo unspecified)
Class Name: met
--
Compound: CCCCC(CC)CNC(=N)NC(=N)NCCCCCCNC(=N)NC(=N)NCC(CC)CCCC (stereo unspecified) [Alexidine dihydrochloride]
Class Name: met
--
Compound: C[C@H]1O[C@@H](O[C@H]2[C@@H](O)C[C@H](O[C@H]3[C@@H](O)C[C@H](O[C@H]4CC[C@@]5(C)[C@H](CC[C@@H]6[C@@H]5C[C@@H](O)[C@]5(C)[C@@H](C7=CC(=O)OC7)CC[C@]65O)C4)O[C@@H]3C)O[C@@H]2C)C[C@H](O)[C@@H]1O
Class Name: met
--
Compound: Nc1nc(=O)c2nc(CNc3ccc(C(=O)N[C@@H](CCC(=O)O)C(=O)O)cc3)cnc2[nH]1
Class Name: not met
--
Compound: COc1cc([C@@H]2c3cc4c(cc3[C@@H](O[C@@H]3O[C@@H]5CO[C@@H](c6cccs6)O[C@H]5[C@H](O)[C@H]3O)[C@H]3COC(=O)[C@H]23)OCO4)cc(OC)c1O [Teniposide]
Class Name: met

Attribution: the supplement of paper PMC13207355
